Test system: K98450-129-R-PDC multicell spheroids, viability;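 further: spheroids exposed to agents for seven days before read-out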
Experiment: Anticancer human tumor K98450-129-R-PDC patient-derived colon adenocarcinoma cell line growth inhibition [PI3K]
Conditions: second compound 0.1 µM; first compound 3.16 µM; active compounds read low
Measure name: viability, T/C (%)

# Compound, Tested on, Unit abbrev, Result value
rows = [
    ("CC(Cn1ccc(-c2ccc(C#N)c(Cl)c2)n1)NC(=O)c1cc(C(C)O)[nH]n1 (stereo unspecified) + Cc1nc(NC(=O)N2CCCC2C(N)=O)sc1-c1ccnc(C(C)(C)C(F)(F)F)c1", "K98450-129-R-PDC multicell spheroids, viability", "%", 99.5),
    ("CNC(=O)c1ccc(N2C(=S)N(c3ccc(C#N)c(C(F)(F)F)c3)C(=O)C2(C)C)cc1F + CC(Nc1ccc2c(c1)OCCn1cc(N3C(=O)OCC3C(F)F)nc1-2)C(N)=O", "K98450-129-R-PDC multicell spheroids, viability", "%", 105),
    ("CC(C)NCC(C(=O)N1CCN(c2ncnc3c2C(C)CC3O)CC1)c1ccc(Cl)cc1 (stereo unspecified) + COc1c(OCCCN2CCOCC2)ccc2c3n(c(=NC(=O)c4cnc(N)nc4)nc12)CCN3", "K98450-129-R-PDC multicell spheroids, viability", "%", 95.4),
    ("Cn1ncc(Cl)c1-c1cc(C(=O)NC(CN)Cc2cccc(F)c2)sc1Cl (stereo unspecified) + Cc1nc(NC(=O)N2CCCC2C(N)=O)sc1-c1ccnc(C(C)(C)C(F)(F)F)c1", "K98450-129-R-PDC multicell spheroids, viability", "%", 89.2),
    ("CCCS(=O)(=O)Nc1ccc(F)c(C(=O)c2c[nH]c3ncc(-c4ccc(Cl)cc4)cc23)c1F + Cc1nc(NC(=O)N2CCCC2C(N)=O)sc1-c1ccnc(C(C)(C)C(F)(F)F)c1", "K98450-129-R-PDC multicell spheroids, viability", "%", 118),
    ("CC1(C)CCC(Nc2ncc(C(F)(F)F)c(-c3c[nH]c4c(P(C)(C)=O)c(C#N)ccc34)n2)CN1 (stereo unspecified) + CC(Nc1ncnc2nc[nH]c12)c1cc2cccc(Cl)c2c(=O)n1-c1ccccc1", "K98450-129-R-PDC multicell spheroids, viability", "%", 78.7),
]
